# target_system: PIP4K2C (Homo sapiens, UniProt Q8TBX8)
# Construct: T7 phage fusion (kinase-tagged phage); purchased DiscoverX; host or cells: BL21-derived E. coli (T7 phage)
# Sequence (Q8TBX8 whole entry, the tested form may be a part): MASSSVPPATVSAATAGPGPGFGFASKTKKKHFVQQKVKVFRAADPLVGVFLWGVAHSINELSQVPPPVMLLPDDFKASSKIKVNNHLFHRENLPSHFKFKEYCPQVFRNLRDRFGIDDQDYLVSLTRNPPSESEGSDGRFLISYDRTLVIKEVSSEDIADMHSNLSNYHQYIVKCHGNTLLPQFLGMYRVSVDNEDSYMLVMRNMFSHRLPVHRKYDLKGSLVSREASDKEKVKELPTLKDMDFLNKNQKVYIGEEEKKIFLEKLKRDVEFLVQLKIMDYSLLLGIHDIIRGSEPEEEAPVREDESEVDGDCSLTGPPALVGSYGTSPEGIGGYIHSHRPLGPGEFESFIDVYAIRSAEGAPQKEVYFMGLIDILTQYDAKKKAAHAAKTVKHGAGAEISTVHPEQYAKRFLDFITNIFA
# experiment_summary: Kd select analysis (DiscoverX)
# Assay type: binding
# measurement_context: Phenazopyridine Kd (nM)
measured_parameter: Kd (nM)
Give just the number in nM; leave the unit off.

What value of Kd on PIP4K2C (Homo sapiens, UniProt Q8TBX8) does Nc1ccc(N=Nc2ccccc2)c(N)n1 have?
540

---

# target_system: MKNK2 (Homo sapiens)
# Construct: purchased DiscoverX (KINOMEscan)
# Sequence (Q9HBH9 whole entry): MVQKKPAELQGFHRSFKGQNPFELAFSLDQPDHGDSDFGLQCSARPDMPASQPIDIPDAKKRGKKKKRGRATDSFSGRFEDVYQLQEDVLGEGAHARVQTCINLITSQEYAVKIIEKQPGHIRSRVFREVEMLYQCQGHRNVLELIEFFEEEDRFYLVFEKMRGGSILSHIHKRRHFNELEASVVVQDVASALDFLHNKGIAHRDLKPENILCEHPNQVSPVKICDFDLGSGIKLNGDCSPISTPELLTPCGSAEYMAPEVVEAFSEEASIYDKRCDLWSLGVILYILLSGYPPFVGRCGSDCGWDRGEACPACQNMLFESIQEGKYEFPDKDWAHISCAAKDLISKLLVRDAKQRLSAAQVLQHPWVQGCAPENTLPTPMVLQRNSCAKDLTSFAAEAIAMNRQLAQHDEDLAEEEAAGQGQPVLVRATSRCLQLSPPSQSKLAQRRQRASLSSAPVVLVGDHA
# experiment_summary: Kd select analysis (DiscoverX)
# Type: binding
# Procedure: Hits are identified by an ultra-sensitive quantitative PCR detecting the specific DNA tag linked to each kinase (Supplementary Figure S2). The drug is used at a concentration of 10 µM and results are expressed as the percentage of signal (kinase PCR detection) with respect to DMSO control conditions. Thirteen hits were identified, with a signal reduction ranging from 0 to 27% (Table 3). Full raw data are presented in Supplementary Table S4. […]
measured_parameter: Kd (nM)
Write down the numeric answer in nM and omit the unit.

I am curious: what Kd value has been reported for Nc1ccc(N=Nc2ccccc2)c(N)n1 [phenazopyridine, 2,6-diamino-3-(phenylazo)pyridine] ?
2100

---

# target_system: GAK (Homo sapiens, UniProt O14976)
# Construct: T7 phage fusion (kinase-tagged phage); purchased DiscoverX; host or cells: BL21-derived E. coli (T7 phage)
# Sequence (O14976 whole entry, the tested form may be a part): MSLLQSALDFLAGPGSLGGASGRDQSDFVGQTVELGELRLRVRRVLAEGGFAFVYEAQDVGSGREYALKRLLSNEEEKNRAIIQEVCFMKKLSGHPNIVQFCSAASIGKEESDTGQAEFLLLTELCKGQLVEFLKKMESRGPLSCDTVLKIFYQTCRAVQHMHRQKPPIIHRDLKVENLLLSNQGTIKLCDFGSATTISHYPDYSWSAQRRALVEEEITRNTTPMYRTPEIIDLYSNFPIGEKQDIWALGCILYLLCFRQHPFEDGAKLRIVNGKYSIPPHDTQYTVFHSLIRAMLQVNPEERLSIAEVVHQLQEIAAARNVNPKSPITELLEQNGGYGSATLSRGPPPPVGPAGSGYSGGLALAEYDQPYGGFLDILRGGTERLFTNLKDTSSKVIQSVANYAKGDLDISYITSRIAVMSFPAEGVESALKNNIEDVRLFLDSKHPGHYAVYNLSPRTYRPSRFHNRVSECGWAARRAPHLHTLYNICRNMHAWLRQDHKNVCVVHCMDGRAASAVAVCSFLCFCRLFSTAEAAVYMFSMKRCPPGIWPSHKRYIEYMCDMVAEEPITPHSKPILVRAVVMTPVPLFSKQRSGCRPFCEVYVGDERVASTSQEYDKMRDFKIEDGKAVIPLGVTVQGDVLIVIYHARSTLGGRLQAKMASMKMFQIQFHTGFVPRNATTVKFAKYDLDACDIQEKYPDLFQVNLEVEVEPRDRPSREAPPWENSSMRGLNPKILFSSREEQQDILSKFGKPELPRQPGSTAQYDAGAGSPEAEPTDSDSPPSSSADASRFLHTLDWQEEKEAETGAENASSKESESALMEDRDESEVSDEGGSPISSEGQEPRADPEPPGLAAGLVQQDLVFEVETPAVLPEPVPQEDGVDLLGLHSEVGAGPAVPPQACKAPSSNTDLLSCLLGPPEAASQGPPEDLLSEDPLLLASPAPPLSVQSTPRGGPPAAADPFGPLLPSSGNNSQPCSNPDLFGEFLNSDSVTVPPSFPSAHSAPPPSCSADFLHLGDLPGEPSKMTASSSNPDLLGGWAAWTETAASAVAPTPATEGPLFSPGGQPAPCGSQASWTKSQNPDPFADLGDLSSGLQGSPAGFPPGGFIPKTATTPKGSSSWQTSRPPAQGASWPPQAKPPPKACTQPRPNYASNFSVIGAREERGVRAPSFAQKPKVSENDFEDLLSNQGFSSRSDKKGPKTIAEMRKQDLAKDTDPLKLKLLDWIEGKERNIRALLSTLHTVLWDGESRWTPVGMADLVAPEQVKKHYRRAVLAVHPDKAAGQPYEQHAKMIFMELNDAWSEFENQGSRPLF
# experiment_summary: Kd select analysis (DiscoverX)
# Type: binding
# measurement_context: Phenazopyridine Kd (nM)
measured_parameter: Kd (nM)
Give just the number in nM; leave the unit off.

Param readout = Kd; param system = GAK (Homo sapiens, UniProt O14976); param query = Nc1ccc(N=Nc2ccccc2)c(N)n1 ; response: value
760

---

Target sequence: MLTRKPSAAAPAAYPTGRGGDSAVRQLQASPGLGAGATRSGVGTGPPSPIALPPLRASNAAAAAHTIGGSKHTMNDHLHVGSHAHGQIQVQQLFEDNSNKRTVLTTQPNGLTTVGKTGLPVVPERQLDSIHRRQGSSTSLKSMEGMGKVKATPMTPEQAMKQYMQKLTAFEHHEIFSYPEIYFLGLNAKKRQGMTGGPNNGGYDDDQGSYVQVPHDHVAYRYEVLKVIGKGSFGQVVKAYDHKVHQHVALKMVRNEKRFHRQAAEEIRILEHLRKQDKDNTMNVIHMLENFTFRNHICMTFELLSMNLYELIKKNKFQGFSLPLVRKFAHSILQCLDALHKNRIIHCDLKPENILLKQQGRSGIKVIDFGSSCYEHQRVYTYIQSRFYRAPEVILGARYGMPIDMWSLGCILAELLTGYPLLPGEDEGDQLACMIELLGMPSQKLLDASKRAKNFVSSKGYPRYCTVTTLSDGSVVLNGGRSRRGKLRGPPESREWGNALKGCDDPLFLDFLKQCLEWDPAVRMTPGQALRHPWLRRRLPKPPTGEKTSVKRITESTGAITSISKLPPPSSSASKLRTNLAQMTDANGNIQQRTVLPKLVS
measured_parameter: pKd
As a rule, pKd stands for the negative log10 of the concentration, concentration in M.

# query: pKd of entry Nc1ccc(N=Nc2ccccc2)c(N)n1
5.30
